- ASSAY EXPLANATION: AUC (0 to infinity) in male Sprague-Dawley rat at 100 mg/kg, po measured upto 240 hrs by LC/MS/MS analysis
- Format: ADME, organism-based
- TEST CONTEXT: in vivo

| CHEM SMILES | AUC |
| --- | --- |
| Cc1cccc(-c2c(O)c3scc(Br)c3[nH]c2=O)c1 | 19700 µM·h |

====

- ASSAY EXPLANATION: Half life in male Sprague-Dawley rat at 100 mg/kg, po measured upto 240 hrs by LC/MS/MS analysis
- Assay type: ADME, organism-based
- TEST CONTEXT: in vivo

| CHEM SMILES | UNIT ANNOTATION | half-life |
| --- | --- | --- |
| Cc1cccc(-c2c(O)c3scc(Br)c3[nH]c2=O)c1 | h | 48 |
